B1: HDV Ribozyme (parent)
chain: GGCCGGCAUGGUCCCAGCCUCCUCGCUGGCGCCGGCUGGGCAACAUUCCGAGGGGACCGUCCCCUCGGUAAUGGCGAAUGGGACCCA

Variants of: B1
Experiment: self-cleavage, relative activity (ratio to wild type); higher = more cleavage; co-transcriptional
Result type: self-cleavage

| Variant | Result type | Numeric value |
| --- | --- | --- |
| A42C C64U | self-cleavage | 0.208 |
| C48U C66U | self-cleavage | 0.947 |
| C19G U65A | self-cleavage | 0.0354 |
| G1A C24U | self-cleavage | 0.111 |
| U65A G73A | self-cleavage | 0.342 |
| C26U G35C | self-cleavage | 0.288 |
| C62A U79C | self-cleavage | 0.339 |
| C7G C57U | self-cleavage | 0.383 |
| U20A C49U | self-cleavage | 0.0665 |
| C22U G38C | self-cleavage | 0.122 |
| G17C U20A | self-cleavage | 0.0573 |
| C58A U72G | self-cleavage | 1.09 |
| C58U G76C | self-cleavage | 0.935 |
| G28C A87G | self-cleavage | 0.125 |
| C19A C64G | self-cleavage | 0.111 |
| A8U A70C | self-cleavage | 0.692 |
| C18G C84A | self-cleavage | 0.095 |
| G6C G80A | self-cleavage | 0.0665 |
| G5A A78U | self-cleavage | 0.101 |
| U27C C86A | self-cleavage | 0.875 |
| C49G U72A | self-cleavage | 0.0692 |
| C3G G73A | self-cleavage | 0.211 |
| G5U G67C | self-cleavage | 0.582 |
| A51G G54C | self-cleavage | 1.37 |
| G25C C41A | self-cleavage | 0.0898 |
| G52C C57U | self-cleavage | 0.991 |
| G80A G81C | self-cleavage | 0.106 |
| C49A U72G | self-cleavage | 0.443 |
| G29U U65G | self-cleavage | 0.0755 |
| U65C A77C | self-cleavage | 0.465 |
| G25A A78C | self-cleavage | 0.0302 |
| G39C C48U | self-cleavage | 0.405 |
| G31C U60G | self-cleavage | 0.222 |
| G10C G82C | self-cleavage | 0.0875 |
| C66G G67U | self-cleavage | 0.831 |
| U23A C44G | self-cleavage | 0.594 |
| A56G G59A | self-cleavage | 0.849 |
| A8C C85A | self-cleavage | 0.831 |
| A56C C84A | self-cleavage | 0.95 |
| C32U C66G | self-cleavage | 0.739 |
| A45G C49U | self-cleavage | 1.24 |
| C4A A78G | self-cleavage | 0.147 |
| A83C | self-cleavage | 0.458 |
| G29U G59C | self-cleavage | 0.104 |
| U9A G53U | self-cleavage | 1.28 |
| C36U G76C | self-cleavage | 0.909 |
